target: PSG G322A G335A (PSD-95)
test: FP displacement (competition) of FITC-15 AA CRIPT by library peptide, IC50 and Ki
test-parameters: read-out: IC50 (µM), PSG G322A G335A; FP displacement of FITC-15 AA CRIPT probe by acetylated PSD library peptide (P-13 to P0 plus extra N-terminal Y)
experimental-readout: IC50 (µM)
Field: numeric (µM). Do not append units.

1) CC(=O)N[C@@H](Cc1ccc(O)cc1)C(=O)N[C@@H](CO)C(=O)N[C@@H](CC(C)C)C(=O)N[C@@H](CO)C(=O)N[C@@H](CCCCN)C(=O)N[C@@H](Cc1c[nH]cn1)C(=O)N[C@@H](CCC(=O)O)C(=O)N[C@@H](CO)C(=O)N[C@@H](CCC(=O)O)C(=O)N[C@@H](Cc1ccc(O)cc1)C(=O)N[C@@H](CC(N)=O)C(=O)N[C@H](C(=O)N[C@H](C(=O)N[C@@H](CCCNC(=N)N)C(=O)N[C@H](C(=O)O)C(C)C)[C@@H](C)O)[C@@H](C)O [NETO1] = 63

We now examine a further molecule.
Value lookup for IC50; key = CC[C@H](C)[C@H](NC(=O)[C@H](CO)NC(=O)[C@H](CCC(N)=O)NC(=O)[C@H](CCCNC(=N)N)NC(=O)[C@H](CCCCN)NC(=O)[C@H](CO)NC(=O)[C@H](CC(=O)O)NC(=O)[C@@H]1CCCN1C(=O)[C@H](Cc1ccc(O)cc1)NC(C)=O)C(=O)N[C@@H](CC(C)C)C(=O)N[C@@H](Cc1ccccc1)C(=O)N[C@@H](CO)C(=O)N[C@H](C(=O)N[C@@H](CCC(=O)O)C(=O)N[C@H](C(=O)O)C(C)C)[C@@H](C)O [BCR]
21
